// reported remaining activity at 25 µM per item
target: E. coli CsgA (Escherichia coli, UniProt P28307); construct: made in house; host or cells: E. coli NEB 3016 slyD::kan, pET11d; assay: In vitro ThioflavinT assay of CsgA aggregation (CsgA ThT Assay); type: biochemical; conditions: read-out: CsgA ThT Assay (10 μM CsgA) % Control AUC at 1005 minutes, 25 μM, mean AUC as % of DMSO control; CsgA 10 μM, black plates; compound 25 μM; 1005 minutes
Sequence (P28307 23-151): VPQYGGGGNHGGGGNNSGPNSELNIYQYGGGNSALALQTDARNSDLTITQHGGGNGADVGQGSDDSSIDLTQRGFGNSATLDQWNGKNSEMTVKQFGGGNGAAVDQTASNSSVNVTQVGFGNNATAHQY
Recorded Metric: remaining activity at 25 µM (%)

- Molecule: "C=CCCN1CC(C(=O)O)n2c(c(-c3cccc(C(F)(F)F)c3)c(Cc3cccc4ccccc34)cc2=O)S1(=O)=O (stereo not shown) [Compound 024]"
  Endpoint Unit: "%"
  Observed Measurement: 35
- Molecule: "CCCCCN1CC(C(=O)O)n2c(c(-c3cccc(C(F)(F)F)c3)c(Cc3ccc(N)c4ccccc34)cc2=O)S1(=O)=O (stereo not shown) [Compound 052]"
  Endpoint Unit: "%"
  Observed Measurement: 42
- Molecule: "CN1CC(C(=O)O)n2c(c(-c3cccc(C(F)(F)F)c3)c(Cc3cccc4ccccc34)c(NC3CCCC3)c2=O)S1(=O)=O (stereo not shown) [Compound 070]"
  Endpoint Unit: "%"
  Observed Measurement: 17
- Molecule: "O=C(O)CC1CS(=O)(=O)c2c(-c3cccc(C(F)(F)F)c3)c(Cc3cccc4ccccc34)cc(=O)n21 (stereo not shown) [Compound 130]"
  Endpoint Unit: "%"
  Observed Measurement: 49
- Molecule: "CN1CC(C(=O)O)n2c(c(-c3cccc(C(F)(F)F)c3)c(Cc3cccc4ccccc34)c(NC3CCOCC3)c2=O)S1(=O)=O (stereo not shown) [Compound 072]"
  Endpoint Unit: "%"
  Observed Measurement: 24
- Molecule: "CN1CC(C(=O)O)n2c(c(-c3cccc(C(F)(F)F)c3)c(Cc3cccc4ccccc34)c(Br)c2=O)S1(=O)=O (stereo not shown) [Compound 058]"
  Endpoint Unit: "%"
  Observed Measurement: 47
- Molecule: "CCc1c(Cc2cccc3ccccc23)c(-c2cccc(C(F)(F)F)c2)c2n(c1=O)C(C(=O)O)CN(CCCCCO)S2(=O)=O (stereo not shown) [Compound 114]"
  Endpoint Unit: "%"
  Observed Measurement: 37
- Molecule: "Nc1c(Cc2cccc3ccccc23)c(-c2cccc(C(F)(F)F)c2)c2n(c1=O)C(C(=O)O)CS2 (racemic) [Compound 020]"
  Endpoint Unit: "%"
  Observed Measurement: 18
- Molecule: "CCCCN1CC(C(=O)O)n2c(c(-c3cccc(C(F)(F)F)c3)c(Cc3cccc4ccccc34)cc2=O)S1(=O)=O (single isomer, unassigned) [Compound 021a]"
  Endpoint Unit: "%"
  Observed Measurement: 36
- Molecule: "O=C(c1nc(=O)n2c(c1-c1cccc(C(F)(F)F)c1)SCC2C(=O)O)c1cccc2ccccc12 (stereo not shown) [Compound 055]"
  Endpoint Unit: "%"
  Observed Measurement: 73
- Molecule: "O=C(O)CCCCN1CC(C(=O)O)n2c(c(-c3cccc(C(F)(F)F)c3)c(Cc3cccc4ccccc34)cc2=O)S1(=O)=O (stereo not shown) [Compound 039]"
  Endpoint Unit: "%"
  Observed Measurement: 92
- Molecule: "CCc1c(Cc2cccc3ccccc23)c(-c2cccc(C(F)(F)F)c2)c2n(c1=O)C(C(=O)O)CN(CCCO)S2(=O)=O (stereo not shown) [Compound 112]"
  Endpoint Unit: "%"
  Observed Measurement: 35
- Molecule: "Cc1c(Cc2cccc3ccccc23)c(-c2cccc(C(F)(F)F)c2)c2n(c1=O)C(C(=O)O)CN(C)S2(=O)=O (stereo not shown) [Compound 068]"
  Endpoint Unit: "%"
  Observed Measurement: 43
